# protocolDetails: Human HepG2 cell viability assay in 384 well format
# Format: toxicity, cell-based
# Design: dose 125 nL, time 70.5 hour; concentration not given beside the values
# conditionsUsed: HepG2 cells, read-out: Inhibition
assayReadout: cytotoxicity at 70.5 h
Respond with the figure and its unit, in that order.

Reference set (2 entries):
# molecule, cytotoxicity at 70.5 h
records = [
    ("O=C(CN1CCN(C(=O)c2sccc2C2CC2)CC1)NC1CC1", "8.72%"),
    ("CCc1ccccc1NC(=O)NCc1nnc(SC)n1C", "-5.85%"),
]

// for each molecule below, give its cytotoxicity at 70.5 h
1. Cc1nccn1CCC1CCNCC1
2. c1coc(CN2C[C@@H]3CN(Cc4ccoc4)CCO[C@@H]3C2)c1
3. CNC(=O)[C@@H]1C[C@H]2CN(C(=O)c3ccccn3)C[C@H]2N1C(C)C
4. CC(NCc1ccnc(OC2CCC2)c1)c1cnn(C)c1 (stereo unspecified)
5. CC(C)(C)c1n[nH]c(C2CN(C(=O)c3cc(Cl)c[nH]3)CCO2)n1 (stereo unspecified)
6. CNc1ccc(CC2CCCN(C(=O)c3cncnc3C)C2)nn1 (stereo unspecified)
7. CC(C)(C)c1nccc(N2CCC(OCCN3CCCCC3)C2)n1 (stereo unspecified)
8. COc1ccc(C(=O)Nc2ccccc2-c2ccc(=O)n(C)n2)nn1

output:
1: -4.48%; 2: -1.5%; 3: 15.1%; 4: -15.1%; 5: -10.3%; 6: -0.989%; 7: -6.69%; 8: 1.94%

input: If you can, please state the reported cytotoxicity at 70.5 h value of CC(C)Cc1ncc2c(n1)CN(c1nc(N(C)C)nc3c1CCCC3)C2 .
output: -0.189%

* * *

# protocolDetails: Human HepG2 cell viability assay in 384 well format
# Format: toxicity, cell-based
# Design: dose 125 nL, time 70.5 hour; concentration not given beside the values
# conditionsUsed: HepG2 cells, read-out: Inhibition
So I've got a bunch of compounds here, and I need their cytotoxicity at 70.5 h values.
Give bare numbers, in %.

Reference set (5 entries):
# compound, cytotoxicity at 70.5 h [%]
records = [
    ("COc1ccc(C(=O)N(C)Cc2cc(C)on2)c(OC)c1", -4.71),
    ("Cc1noc(C)c1CN1CCc2ncnc(-c3cccnc3)c2CC1", -0.64),
    ("O=C(c1ccco1)N1CC[C@H]2[C@H]1CCN2CC1CCOCC1", 5.37),
    ("Fc1ccc2[nH]c3c(c2c1)CCN1C(c2ccncc2)N2CCC31CC2 (stereo unspecified)", 22.4),
    ("Cc1nnc(N(CCC#N)CCC#N)s1", -5.52),
]

Proceed to the following item.
input: If you can, please state the reported cytotoxicity at 70.5 h value of N#Cc1ccccc1C(=O)N1CCC2(CC(=O)NC2=O)C1 (stereo unspecified) .
output: 15.7

* * *

So I've got a bunch of compounds here, and I need their cytotoxicity at 70.5 h values.
# protocolDetails: Human HepG2 cell viability assay in 384 well format
# Format: toxicity, cell-based
# Design: dose 125 nL, time 70.5 hour; concentration not given beside the values
# conditionsUsed: HepG2 cells, read-out: Inhibition
Answers are plain numbers, in %.

Reference set (3 entries):
# compound, assayReadout, observedMeasurement
data = [
    ("c1c[nH]c2nc(C3CCCNC3)nc-2c1 (stereo unspecified)", "cytotoxicity at 70.5 h", -13.7),
    ("CN(C)C(=O)Cc1nc(CN2CCOC(Cn3cccn3)C2)cs1 (stereo unspecified)", "cytotoxicity at 70.5 h", 1.45),
    ("C[C@@H]1CN(c2cc(N3CCC(O)CC3)ncn2)C[C@@]1(O)C1CC1", "cytotoxicity at 70.5 h", -0.962),
]

// for each compound below, give its cytotoxicity at 70.5 h
1. O=C(C(CNCc1ccncc1)c1ccccc1)N1CCOCC1 (stereo unspecified)
2. COc1ccc(CN(C)[C@@H]2CN(C(=O)c3cccs3)C[C@H]2O)cc1
3. Oc1nc(N2CCCC2)nc2c1CCN(Cc1cccnc1)CC2
4. Cc1ccccc1C(NC(=O)Cn1cc(C2CC2)nn1)C1CC1 (stereo unspecified)

output:
1: -5.58; 2: -6.31; 3: -5.83; 4: -3.63

// for each compound below, give its cytotoxicity at 70.5 h
1. O=C(c1ccsc1)N1C[C@@H]2CCN(C(=O)c3cscn3)[C@@H]2C1
2. Cn1cccc1C(=O)NC[C@H]1C[C@@H]2CN(C(=O)c3ccno3)C[C@H]2O1
3. Cc1ccc(CN2CCc3[nH]nc(C(=O)N(C)C)c3C2)o1
4. Cc1cc(C)n(CC2CCCN2C(=O)Cc2cn3ccsc3n2)n1 (stereo unspecified)

output:
[-6.91, -9.62, -0.827, -12.4]

The measured values listed here are drawn from ChEMBL document CHEMBL3507680.
